Values compiled from patent US12662451B2.

# System: SW48 human colorectal cancer cells
# measurement description: Calculated free drug potency in SW48 cell assay, corrected with media free fraction (Example C)
# Format: cell-based
# protocol conditions: Homo sapiens, SW48, SW48 pCC50 corrected with measured free fraction in cell assay media
Recorded CC50 determines the label; the label ranges are LOW: < 40 nM; MID: ≥ 40 nM and < 200 nM; HIGH: ≥ 200 nM

Cc1nc2cc(S(=O)(=O)N(C)c3ccc([C@H]4C[C@@H](OC[C@@H]5COCCO5)C[C@@H](C(=O)Nc5ccc(C(F)(F)F)cc5F)[C@@H]4C(=O)O)cc3)ccc2n1C (stereo in doubt) = LOW
CN(c1ccc([C@H]2CCC[C@@H](C(=O)Nc3ccc(C(F)(F)F)cc3F)[C@@H]2C(=O)O)cc1)S(=O)(=O)c1cccc([C@H]2CCCNC2)c1 = MID
Cc1nc2cc(S(=O)(=O)N(C)c3ccc([C@H]4C[C@@H](O[C@H]5CCOC5)C[C@@H](C(=O)Nc5ccc(C(F)(F)F)cc5F)[C@@H]4C(=O)O)cc3)ccc2n1C (stereo in doubt) = LOW
Cc1nc2cc(S(=O)(=O)N(C)c3ccc([C@@H]4C[C@H](N5CC[C@@H](F)C5)C[C@H](C(=O)Nc5ccc(C(F)(F)F)cc5F)[C@H]4C(=O)O)cc3)ccc2n1C (stereo in doubt) = HIGH
CN(C)CCc1nc2cc(S(=O)(=O)N(C)c3ccc([C@H]4CCC[C@@H](COc5ccc(C(F)(F)F)cc5)[C@@H]4C(=O)O)cc3)ccc2n1C = MID
COc1cccc(S(=O)(=O)N(C)c2ccc([C@H]3CCC[C@@H](C(=O)Nc4ccc(C(F)(F)F)cc4F)[C@@H]3C(=O)O)cc2)c1 (racemic) = MID

Which category does the recorded CC50 put Cc1nc2cc(S(=O)(=O)N(C)c3ccc([C@H]4C[C@@H](NCC(F)(F)F)C[C@@H](C(=O)Nc5ccc(C(F)(F)F)cc5F)[C@@H]4C(=O)O)cc3)ccc2n1C (stereo in doubt) in? MID

Which category does the recorded CC50 put "Cc1nc2cc(S(=O)(=O)N(C)c3ccc([C@H]4C[C@@H](N5CCC(F)(F)C5)C[C@@H](C(=O)Nc5ccc(C(F)(F)F)cc5F)[C@@H]4C(=O)O)cc3)ccc2n1C" in? LOW

Which category does the recorded CC50 put Cc1nc2cc(S(=O)(=O)N(C)c3ccc([C@@H]4C[C@H](NCC(F)(F)F)C[C@H](C(=O)Nc5ccc(C(F)(F)F)cc5F)[C@H]4C(=O)O)cc3)ccc2n1C (stereo in doubt) in? HIGH

Which category does the recorded CC50 put Cc1nc2cc(S(=O)(=O)N(C)c3ccc([C@@H]4C[C@H](O[C@@H]5CCOC5)C[C@H](C(=O)Nc5ccc(C(F)(F)F)cc5F)[C@H]4C(=O)O)cc3)ccc2n1C (stereo in doubt) in? HIGH

Which category does the recorded CC50 put Cc1nc2cc(S(=O)(=O)N(C)c3ccc([C@H]4CCC[C@@H](C(=O)Nc5ccc(C(F)(F)F)cc5F)[C@@H]4C(=O)O)c(F)c3)ccc2n1C (single isomer, unassigned) in? MID

Which category does the recorded CC50 put CN[C@@H]1C[C@H](c2ccc(N(C)S(=O)(=O)c3ccc4c(c3)nc(C)n4C)cc2)[C@@H](C(=O)O)[C@H](C(=O)Nc2ccc(C(F)(F)F)cc2F)C1 (single isomer, unassigned) in? HIGH

Which category does the recorded CC50 put "Cc1nc2cc(S(=O)(=O)N(C)c3ccc([C@H]4CCC[C@@H](C(=O)Nc5ccc(C(F)(F)F)cc5F)[C@@H]4C(=O)O)cc3)ncc2n1C" in? MID

Which category does the recorded CC50 put "CN(c1ccc([C@H]2CCC[C@@H](C(=O)Nc3ccc(C(F)(F)F)cc3F)[C@@H]2C(=O)O)cc1)S(=O)(=O)c1ccc2scnc2c1" in? MID

Which category does the recorded CC50 put Cc1nc2cc(S(=O)(=O)N(C)c3ccc([C@@H]4C[C@H](N5CC[C@H](F)C5)C[C@H](C(=O)Nc5ccc(C(F)(F)F)cc5F)[C@H]4C(=O)O)cc3)ccc2n1C (stereo in doubt) in? HIGH

* * *

# measured on: recombinant full-length WRN protein (1-1432) (Homo sapiens)
# Construct: recombinant full-length WRN protein (1-1432)
# Sequence (Q14191 whole entry): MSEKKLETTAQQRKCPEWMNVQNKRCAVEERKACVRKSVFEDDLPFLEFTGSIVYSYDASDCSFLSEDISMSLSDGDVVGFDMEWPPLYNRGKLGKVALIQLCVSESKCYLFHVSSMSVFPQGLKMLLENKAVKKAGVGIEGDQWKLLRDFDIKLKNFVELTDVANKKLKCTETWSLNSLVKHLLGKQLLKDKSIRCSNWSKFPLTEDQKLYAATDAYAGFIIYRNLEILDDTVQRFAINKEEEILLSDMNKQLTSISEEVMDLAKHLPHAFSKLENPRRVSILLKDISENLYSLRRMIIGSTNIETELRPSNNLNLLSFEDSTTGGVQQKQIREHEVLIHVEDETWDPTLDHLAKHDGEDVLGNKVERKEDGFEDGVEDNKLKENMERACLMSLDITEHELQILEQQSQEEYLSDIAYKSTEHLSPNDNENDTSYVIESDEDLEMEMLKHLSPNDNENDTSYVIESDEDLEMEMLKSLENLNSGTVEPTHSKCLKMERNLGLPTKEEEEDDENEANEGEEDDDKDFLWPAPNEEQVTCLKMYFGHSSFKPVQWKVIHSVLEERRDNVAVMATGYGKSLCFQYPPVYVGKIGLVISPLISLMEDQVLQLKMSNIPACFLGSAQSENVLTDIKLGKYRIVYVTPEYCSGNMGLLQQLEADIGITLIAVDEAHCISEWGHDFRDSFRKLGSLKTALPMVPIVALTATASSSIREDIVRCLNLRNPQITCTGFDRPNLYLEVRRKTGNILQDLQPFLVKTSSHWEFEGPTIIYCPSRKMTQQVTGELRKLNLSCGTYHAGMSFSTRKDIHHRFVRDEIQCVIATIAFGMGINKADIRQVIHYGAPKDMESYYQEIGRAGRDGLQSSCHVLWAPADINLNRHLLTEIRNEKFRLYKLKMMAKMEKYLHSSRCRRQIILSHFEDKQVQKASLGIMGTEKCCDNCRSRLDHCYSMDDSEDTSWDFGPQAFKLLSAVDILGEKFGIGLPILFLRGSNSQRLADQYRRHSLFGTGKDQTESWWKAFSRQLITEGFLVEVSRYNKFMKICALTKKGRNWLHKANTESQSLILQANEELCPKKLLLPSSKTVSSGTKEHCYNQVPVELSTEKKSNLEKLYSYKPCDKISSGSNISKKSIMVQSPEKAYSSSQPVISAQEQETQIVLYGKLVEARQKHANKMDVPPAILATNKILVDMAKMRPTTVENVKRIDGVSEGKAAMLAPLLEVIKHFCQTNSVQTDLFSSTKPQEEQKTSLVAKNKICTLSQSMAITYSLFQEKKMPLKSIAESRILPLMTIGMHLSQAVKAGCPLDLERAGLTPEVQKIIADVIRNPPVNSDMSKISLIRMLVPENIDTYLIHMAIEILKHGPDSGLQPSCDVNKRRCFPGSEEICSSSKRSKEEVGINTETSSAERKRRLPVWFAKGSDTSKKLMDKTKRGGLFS
# measurement description: WRN unwinding activity, fluorogenic 384-well assay (Example A)
# Format: biochemical
# protocol conditions: WRN unwinding activity, 4 hr; Table 2; read-out: 4 hr UNW pIC50 (converted)
Structures can show the parent of a compound that is named as a salt.
We begin with a simple list: items and their reported IC50.
The reply must contain the numeric value and, after it, the unit.

Cc1nc2cc(S(=O)(=O)N(C)c3ccc([C@H]4C[C@@H](OCC(F)F)C[C@@H](C(=O)Nc5ccc(C(F)(F)F)cc5F)[C@@H]4C(=O)O)cc3)ccc2n1C (relative stereo) [Example 159] = 2.51 nM
O=C(O)[C@@H]1[C@@H](c2ccc(-c3cnsc3CO)cc2)CCC[C@H]1C(=O)Nc1ccc(C(F)(F)F)cc1F [Example 51] = 10 nM
Cc1nc2cc(S(=O)(=O)N(C)c3ccc([C@H]4CCC[C@@H](C(=O)NC56CC(C(F)(F)F)(C5)C6)[C@@H]4C(=O)O)cc3)ccc2n1C [Example 185, formic acid salt] = 63.1 nM
O=C(O)[C@@H]1[C@@H](c2ccc(C3CCS(=O)(=O)C3)cc2)CCC[C@H]1C(=O)Nc1ccc(C(F)(F)F)cc1F (single isomer, unassigned) [Example 231] = 316 nM

The reported IC50 of the molecule CN(c1ccc([C@H]2CCC[C@@H](C(=O)Nc3ccc(C(F)(F)F)cc3F)[C@@H]2C(=O)O)cc1)S(=O)(=O)c1cccnc1 [Example 95] was 2.51 nM

The reported IC50 of the molecule Cc1nc2cc(S(=O)(=O)N(C)c3ccc([C@@H]4C[C@H](OCC5CC5)C[C@H](C(=O)Nc5ccc(C(F)(F)F)cc5F)[C@H]4C(=O)O)cc3)ccc2n1C (stereo in doubt) [Example 313] was 251 nM

The reported IC50 of the molecule CN(c1ccc([C@H]2CCC[C@@H](C(=O)Nc3ccc(C(F)(F)F)cc3F)[C@@H]2C(=O)O)cc1)S(=O)(=O)c1ccc2c(c1)nc(C1CC1)n2C [Example 130] was 6.31 nM

The reported IC50 of the molecule O=C(O)[C@@H]1[C@@H](c2ccc([C@H]3CCCOCC3)cc2)CCC[C@H]1C(=O)Nc1ccc(C(F)(F)F)cc1F (racemic) [Example 59] was 794 nM

The reported IC50 of the molecule O=C(O)[C@@H]1[C@@H](c2ccc(-c3ccc4nnnn4n3)cc2)CCC[C@H]1C(=O)Nc1ccc(C(F)(F)F)cc1F [Example 29] was 3980 nM

The reported IC50 of the molecule Cc1nc2cc(S(=O)(=O)N(C)c3ccc([C@@H]4C[C@H](OCC5CCC5)C[C@H](C(=O)Nc5ccc(C(F)(F)F)cc5F)[C@H]4C(=O)O)cc3)ccc2n1C (stereo in doubt) [Example 155] was 794 nM

The reported IC50 of the molecule Cc1nc2cc(S(=O)(=O)N(C)c3ccc([C@H]4CCC[C@@H](C(=O)Nc5ccc(C(F)(F)F)cc5F)[C@@H]4C(=O)O)cc3)ccc2n1C (racemic) [Example 81] was 7.94 nM

* * *

# System: SW48 human colorectal cancer cells (MSI-H cancer cells)
# measurement description: SW48 cell viability, CellTiter-Glo, 120 hours (Example B)
# protocol conditions: Homo sapiens, SW48, 120 h, read-out: SW48 pCC50, SW48 cell viability, 120 hours incubation (converted); Table 2
readout: CC50 (µM)
Write the value in µM as a bare number.

O=C(O)[C@@H]1[C@@H](c2ccc(-c3cccc4sccc34)cc2)CCC[C@H]1C(=O)Nc1ccc(C(F)(F)F)cc1F = 6.31
Cc1nc2cc(S(=O)(=O)N(C)c3cnc([C@@H]4CCC[C@H](C(=O)Nc5ccc(C(F)(F)F)cc5F)[C@H]4C(=O)O)cn3)ccc2n1C (relative stereo) = 25.1
Cc1nc2c(F)c(S(=O)(=O)N(C)c3ccc([C@H]4CCC[C@@H](C(=O)Nc5ccc(C(F)(F)F)cc5F)[C@@H]4C(=O)O)cc3)ccc2n1C = 1
Cc1nc2cc(S(=O)(=O)N(C)c3ccc([C@H]4C[C@@H](N5CC6(F)CC5C6)C[C@@H](C(=O)Nc5ccc(C(F)(F)F)cc5F)[C@@H]4C(=O)O)cc3)ccc2n1C (relative stereo) = 25.1

Attention now turns to another entry.
Value sought: CC50, system SW48 human colorectal cancer cells (MSI-H cancer cells), item Cc1nc2cc(S(=O)(=O)N(C)c3ccc([C@H]4C[C@@H](N5CC[C@@H](F)C5)C[C@@H](C(=O)Nc5ccc(C(F)(F)F)cc5F)[C@@H]4C(=O)O)cc3)ccc2n1C (stereo in doubt) . Result: 0.0631
